Item-by-item account of MIC K. pneumoniae GN_106, PmxR
# Tested on: K. pneumoniae GN_106, PmxR
# measurement conditions: GN 106, PmxR
Positions of bridges follow the written chain, without caps; N, C: chain ends. Non-standard residues stand in square brackets, D forms with d. Residues, ends and D or L forms follow the SMILES beside them. *: point of attachment. X1 = CCCCCCCN1CCC(C(=O)*)CC1; Nonanoyl = CCCCCCCCC(=O)*; dDab = NCC[C@@H](N)C(=O)O; Dab = NCC[C@H](N)C(=O)O
Express it in µg/mL; write the number only.

• CCCCCCCN1CCC(C(=O)N[C@H](CCN)C(=O)N[C@H]2CCNC(=O)[C@H](CC(C)C)NC(=O)[C@H](CCN)NC(=O)[C@H](CCN)NC(=O)[C@H](CC(C)C)NC(=O)[C@@H](Cc3ccccc3)NC(=O)[C@H](CCN)NC2=O)CC1 [compound 6524] (X1-[dDab][Dab][Dab][dF]L[Dab][Dab]L; lactam 2-C) = 32

-- ask # get_value(readout='MIC K. pneumoniae GN_106, PmxR', item= CCCCCCCCC(=O)N[C@@H](CCN)C(=O)N[C@H](C(=O)N[C@@H](CCN)C(=O)N[C@H]1CCNC(=O)[C@H](Cc2c[nH]c3ccccc23)NC(=O)[C@H](CCN)NC(=O)[C@H](CCN)NC(=O)[C@H](CC(C)C)NC(=O)[C@@H](Cc2ccccc2)NC(=O)[C@H](CCN)NC1=O)[C@@H](C)O [compound 9032] (Nonanoyl-[Dab]T[Dab][Dab][Dab][dF]L[Dab][Dab]W; lactam 4-C) )
-- reply 4

###

# Tested on: P. aeruginosa GN_043, PmxR
# measurement conditions: P. aeruginosa GN_043, PmxR
Positions of bridges follow the written chain, without caps; N, C: chain ends. Non-standard residues stand in square brackets, D forms with d. Residues, ends and D or L forms follow the SMILES beside them. *: point of attachment. Decanoyl(3R-OH) = CCCCCCC[C@@H](O)CC(=O)*; Lauroyl = CCCCCCCCCCCC(=O)*; dDab = NCC[C@@H](N)C(=O)O; X8 = CC(C)CCCC(C)CC(=O)*; dDap = NC[C@@H](N)C(=O)O; Dab = NCC[C@H](N)C(=O)O; Abu = CC[C@H](N)C(=O)O
Item-by-item account of MIC P. aeruginosa GN_043, PmxR
Express it in µg/mL; write the number only.

- CCCCCCC[C@@H](O)CC(=O)N[C@H](CN)C(=O)N[C@H]1CCNC(=O)[C@H](CC(C)C)NC(=O)[C@H](CCN)NC(=O)[C@H](CCN)NC(=O)[C@H](CC)NC(=O)[C@@H](Cc2ccccc2)NC(=O)[C@H](CCN)NC1=O [compound 9292] ({Decanoyl(3R-OH)}-[dDap][Dab][Dab][dF][Abu][Dab][Dab]L; lactam 2-C): 2
- CC(C)CCCC(C)CC(=O)N[C@H](CCN)C(=O)N[C@H]1CCNC(=O)[C@H](CC(C)C)NC(=O)[C@H](CCN)NC(=O)[C@H](CCN)NC(=O)[C@H](Cc2ccccc2)NC(=O)[C@@H](CC(C)C)NC(=O)[C@H](CCN)NC1=O (stereo partly drawn) [compound 6515] (X8-[dDab][Dab][Dab][dL]F[Dab][Dab]L; lactam 2-C): 2
- CCCCCCC[C@@H](O)CC(=O)N[C@H](CCN)C(=O)N[C@H]1CCNC(=O)[C@H](CC(C)C)NC(=O)[C@H](CCN)NC(=O)[C@H](CCN)NC(=O)[C@H](CC(C)C)NC(=O)[C@@H](C)NC(=O)[C@H](CCN)NC1=O [compound 5006] ({Decanoyl(3R-OH)}-[dDab][Dab][Dab][dA]L[Dab][Dab]L; lactam 2-C): 8
- CCCCCCC[C@@H](O)CC(=O)N[C@H](CCN)C(=O)N[C@H]1CCNC(=O)[C@H]([C@@H](C)O)NC(=O)[C@H](CCNC(=O)[C@@H](N)CCCNC(=N)N)NC(=O)[C@H](CCN)NC(=O)[C@H](CC(C)C)NC(=O)[C@@H](Cc2ccccc2)NC(=O)[C@H](CCN)NC1=O [compound 5603] ({Decanoyl(3R-OH)}-[dDab][Dab][Dab][dF]L[Dab][Dab](Arg)T; lactam 2-C): 32

Now for a further molecule.
-- ask # get_value(readout='MIC P. aeruginosa GN_043, PmxR', item= CCCCCCCCCCCC(=O)N[C@H](CN)C(=O)N[C@H]1CCNC(=O)[C@H](CC(C)C)NC(=O)[C@H](CCN)NC(=O)[C@H](CCN)NC(=O)[C@H](CC(C)C)NC(=O)[C@@H](Cc2ccccc2)NC(=O)[C@H](CCN)NC1=O [compound 9297] (Lauroyl-[dDap][Dab][Dab][dF]L[Dab][Dab]L; lactam 2-C) )
-- reply 2

###

Item-by-item account of MIC K. pneumoniae GN_106, PmxR
# Tested on: K. pneumoniae GN_106, PmxR
# measurement conditions: GN 106, PmxR
Positions of bridges follow the written chain, without caps; N, C: chain ends. Non-standard residues stand in square brackets, D forms with d. Residues, ends and D or L forms follow the SMILES beside them. *: point of attachment. Isonicotinoyl(2-Ph) = O=C(c1ccnc(-c2ccccc2)c1)*; Decanoyl(3R-OH) = CCCCCCC[C@@H](O)CC(=O)*; Butanoyl(4-OPh) = O=C(CCCOc1ccccc1)*; dDab = NCC[C@@H](N)C(=O)O; Octanoyl = CCCCCCCC(=O)*; dDap = NC[C@@H](N)C(=O)O; Dab = NCC[C@H](N)C(=O)O

Examples from the recorded data:
- CCCCCCC[C@@H](O)CC(=O)N[C@H](CCCNC(=N)N)C(=O)N[C@H]1CCNC(=O)[C@H](Cc2c[nH]c3ccccc23)NC(=O)[C@H](CCN)NC(=O)[C@H](CCN)NC(=O)[C@H](CC(C)C)NC(=O)[C@@H](Cc2ccccc2)NC(=O)[C@H](CCN)NC1=O [compound 8884] ({Decanoyl(3R-OH)}-[dR][Dab][Dab][dF]L[Dab][Dab]W; lactam 2-C): 16 µg/mL
- CC(C)C[C@@H]1NC(=O)[C@H](CCN)NC(=O)[C@H](CCN)NC(=O)[C@H](CC(C)C)NC(=O)[C@@H](Cc2ccccc2)NC(=O)[C@H](CCN)NC(=O)[C@@H](NC(=O)[C@@H](CCN)NC(=O)c2ccnc(-c3ccccc3)c2)CCNC1=O [compound 6525] ({Isonicotinoyl(2-Ph)}-[dDab][Dab][Dab][dF]L[Dab][Dab]L; lactam 2-C): >32 µg/mL
- CCCCCCCC(=O)N[C@H](CN)C(=O)N[C@H]1CCNC(=O)[C@H](Cc2c[nH]c3ccccc23)NC(=O)[C@H](CCN)NC(=O)[C@H](CCN)NC(=O)[C@H](CC(C)C)NC(=O)[C@@H](Cc2ccccc2)NC(=O)[C@H](CCN)NC1=O [compound 8887] (Octanoyl-[dDap][Dab][Dab][dF]L[Dab][Dab]W; lactam 2-C): 16 µg/mL
- CC(C)C[C@@H]1NC(=O)[C@H](CCN)NC(=O)[C@H](CCN)NC(=O)[C@H](Cc2ccccc2)NC(=O)[C@@H](CC(C)C)NC(=O)[C@H](CCN)NC(=O)[C@@H](NC(=O)[C@@H](CCN)NC(=O)CCCOc2ccccc2)CCNC1=O [compound 6521] ({Butanoyl(4-OPh)}-[dDab][Dab][Dab][dL]F[Dab][Dab]L; lactam 2-C): 32 µg/mL

-- ask # get_value(readout='MIC K. pneumoniae GN_106, PmxR', item= CCCCCCC[C@@H](O)CC(=O)N[C@H](CCN)C(=O)N[C@H]1CCNC(=O)[C@H](CC(C)C)NC(=O)[C@H](CCN)NC(=O)[C@H](CCN)NC(=O)[C@@H](CC(C)C)NC(=O)[C@H](Cc2ccccc2)NC(=O)[C@H](CCN)NC1=O [compound 8640] ({Decanoyl(3R-OH)}-[dDab][Dab][Dab]F[dL][Dab][Dab]L; lactam 2-C) )
-- reply >32 µg/mL

-- ask # get_value(readout='MIC K. pneumoniae GN_106, PmxR', item= CCCCCCC[C@@H](O)CC(=O)N[C@@H](CCCCN)C(=O)N[C@H]1CCNC(=O)[C@H](CC(C)C)NC(=O)[C@H](CCN)NC(=O)[C@H](CCN)NC(=O)[C@H](CC(C)C)NC(=O)[C@@H](Cc2ccccc2)NC(=O)[C@H](CCN)NC1=O [compound 5562] ({Decanoyl(3R-OH)}-K[Dab][Dab][dF]L[Dab][Dab]L; lactam 2-C) )
-- reply 4 µg/mL

###

# System: K. pneumoniae GN_106, PmxR
# measurement conditions: GN 106, PmxR
Positions of bridges follow the written chain, without caps; N, C: chain ends. Non-standard residues stand in square brackets, D forms with d. Residues, ends and D or L forms follow the SMILES beside them. *: point of attachment. Decanoyl(3R-OH) = CCCCCCC[C@@H](O)CC(=O)*; dBip = N[C@H](Cc1ccc(-c2ccccc2)cc1)C(=O)O; Tle = CC(C)(C)[C@H](N)C(=O)O; dDap = NC[C@@H](N)C(=O)O; Dab = NCC[C@H](N)C(=O)O
Item-by-item account of MIC K. pneumoniae GN_106, PmxR
Express it in µg/mL; write the number only.

* CCCCCCC[C@@H](O)CC(=O)N[C@H](CN)C(=O)N[C@H]1CCNC(=O)[C@H]([C@@H](C)O)NC(=O)[C@H](CCN)NC(=O)[C@H](CCN)NC(=O)[C@H](CC(C)C)NC(=O)[C@@H](Cc2ccccc2)NC(=O)[C@H](CCN)NC1=O [compound 6395] ({Decanoyl(3R-OH)}-[dDap][Dab][Dab][dF]L[Dab][Dab]T; lactam 2-C) | 32

-- ask For the record CCCCCCC[C@@H](O)CC(=O)N[C@H](CN)C(=O)N[C@H]1CCNC(=O)[C@H](Cc2c[nH]c3ccccc23)NC(=O)[C@H](CCCNC(=N)N)NC(=O)[C@H](CCCCN)NC(=O)[C@H](C(C)(C)C)NC(=O)[C@@H](Cc2ccc(-c3ccccc3)cc2)NC(=O)[C@H](CCN)NC1=O [compound 8892] ({Decanoyl(3R-OH)}-[dDap][Dab][Dab][dBip][Tle]KRW; lactam 2-C) , what value of MIC K. pneumoniae GN_106, PmxR is listed for K. pneumoniae GN_106, PmxR?
-- reply 8

-- ask For the record CCCCCCC[C@@H](O)CC(=O)N[C@H](CC(N)=O)C(=O)N[C@H]1CCNC(=O)[C@H](CC(C)C)NC(=O)[C@H](CCN)NC(=O)[C@H](CCN)NC(=O)[C@H](CC(C)C)NC(=O)[C@@H](Cc2ccccc2)NC(=O)[C@H](CCN)NC1=O [compound 6447] ({Decanoyl(3R-OH)}-[dN][Dab][Dab][dF]L[Dab][Dab]L; lactam 2-C) , what value of MIC K. pneumoniae GN_106, PmxR is listed for K. pneumoniae GN_106, PmxR?
-- reply 4
